target-or-system: recombinant human GSK3β (Homo sapiens, UniProt P49841)
Sequence (P49841 whole entry): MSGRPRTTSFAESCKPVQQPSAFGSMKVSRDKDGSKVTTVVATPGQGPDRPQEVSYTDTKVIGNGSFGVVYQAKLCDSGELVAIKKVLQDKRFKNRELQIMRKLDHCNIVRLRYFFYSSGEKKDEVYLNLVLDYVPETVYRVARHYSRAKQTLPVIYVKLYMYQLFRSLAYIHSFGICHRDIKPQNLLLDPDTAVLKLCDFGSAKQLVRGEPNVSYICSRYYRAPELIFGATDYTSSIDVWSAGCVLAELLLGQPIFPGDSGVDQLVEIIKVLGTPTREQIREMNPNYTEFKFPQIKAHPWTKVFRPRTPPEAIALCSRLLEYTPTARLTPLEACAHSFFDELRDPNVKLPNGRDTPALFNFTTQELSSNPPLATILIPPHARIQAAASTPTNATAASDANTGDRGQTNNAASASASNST
test-details: GSK3β Scintillation Proximity Assay (ATP competition)
settings: inhibition constants calculated with Km of ATP for GSK3β of 20 μM; 1 μM ATP, 1 μM biotinylated peptide substrate
property-name: Ki
Answer format reminder: number followed by unit.

compound	Ki
Cc1ncc(-c2nc(Nc3ccc(C(=O)N4CCN(C)CC4)nc3)ncc2F)n1C1CCOCC1	63 nM

Please look at this compound and report its Ki: "COC1CCN(C(=O)c2ccc(Nc3ncc(F)c(-c4cnc(C)n4C4CCOCC4)n3)cn2)CC1" 28 nM

Output measured Ki for this item: "CCN(CC)C(=O)c1ccc(Nc2ncc(F)c(-c3cnc(C)n3C3CCOCC3)n2)cn1" 29 nM

Give the value of Ki reported for the following: "Cc1ncc(-c2nc(Nc3ccc(C(=O)N4CCN(C)CC4)nc3)ncc2F)n1C" 100 nM

Please give measured Ki of the following entry: Cc1ncc(-c2nc(Nc3ccc(C(=O)N4CCCC(C)C4)nc3)ncc2F)n1C1CCOCC1 (centres unmarked) 16 nM

Could you please provide reported Ki for "Cc1ncc(-c2nc(Nc3ccc(C(=O)N4CCC(F)(F)CC4)nc3)ncc2F)n1C1CCOCC1" ? Thanks! 34 nM

For the compound "Cc1ncc(-c2nc(Nc3ccc(C(=O)N4CCN(c5ccc(F)cc5)CC4)nc3)ncc2F)n1C1CCOCC1" , give its reported Ki. 10 nM

Recall and state the measured Ki for "Cc1ncc(-c2nc(Nc3ccc(C(=O)N4CCC4)nc3)ncc2F)n1C1CCOCC1" . 70 nM
